# Target desc: N-type Ca^2+ Channel (Homo sapiens, UniProt Q00975)
# Construct: host or cells: IMR-32 cells differentiated with dibutyryl cAMP and bromodeoxyuridine
# Sequence (Q00975 whole entry): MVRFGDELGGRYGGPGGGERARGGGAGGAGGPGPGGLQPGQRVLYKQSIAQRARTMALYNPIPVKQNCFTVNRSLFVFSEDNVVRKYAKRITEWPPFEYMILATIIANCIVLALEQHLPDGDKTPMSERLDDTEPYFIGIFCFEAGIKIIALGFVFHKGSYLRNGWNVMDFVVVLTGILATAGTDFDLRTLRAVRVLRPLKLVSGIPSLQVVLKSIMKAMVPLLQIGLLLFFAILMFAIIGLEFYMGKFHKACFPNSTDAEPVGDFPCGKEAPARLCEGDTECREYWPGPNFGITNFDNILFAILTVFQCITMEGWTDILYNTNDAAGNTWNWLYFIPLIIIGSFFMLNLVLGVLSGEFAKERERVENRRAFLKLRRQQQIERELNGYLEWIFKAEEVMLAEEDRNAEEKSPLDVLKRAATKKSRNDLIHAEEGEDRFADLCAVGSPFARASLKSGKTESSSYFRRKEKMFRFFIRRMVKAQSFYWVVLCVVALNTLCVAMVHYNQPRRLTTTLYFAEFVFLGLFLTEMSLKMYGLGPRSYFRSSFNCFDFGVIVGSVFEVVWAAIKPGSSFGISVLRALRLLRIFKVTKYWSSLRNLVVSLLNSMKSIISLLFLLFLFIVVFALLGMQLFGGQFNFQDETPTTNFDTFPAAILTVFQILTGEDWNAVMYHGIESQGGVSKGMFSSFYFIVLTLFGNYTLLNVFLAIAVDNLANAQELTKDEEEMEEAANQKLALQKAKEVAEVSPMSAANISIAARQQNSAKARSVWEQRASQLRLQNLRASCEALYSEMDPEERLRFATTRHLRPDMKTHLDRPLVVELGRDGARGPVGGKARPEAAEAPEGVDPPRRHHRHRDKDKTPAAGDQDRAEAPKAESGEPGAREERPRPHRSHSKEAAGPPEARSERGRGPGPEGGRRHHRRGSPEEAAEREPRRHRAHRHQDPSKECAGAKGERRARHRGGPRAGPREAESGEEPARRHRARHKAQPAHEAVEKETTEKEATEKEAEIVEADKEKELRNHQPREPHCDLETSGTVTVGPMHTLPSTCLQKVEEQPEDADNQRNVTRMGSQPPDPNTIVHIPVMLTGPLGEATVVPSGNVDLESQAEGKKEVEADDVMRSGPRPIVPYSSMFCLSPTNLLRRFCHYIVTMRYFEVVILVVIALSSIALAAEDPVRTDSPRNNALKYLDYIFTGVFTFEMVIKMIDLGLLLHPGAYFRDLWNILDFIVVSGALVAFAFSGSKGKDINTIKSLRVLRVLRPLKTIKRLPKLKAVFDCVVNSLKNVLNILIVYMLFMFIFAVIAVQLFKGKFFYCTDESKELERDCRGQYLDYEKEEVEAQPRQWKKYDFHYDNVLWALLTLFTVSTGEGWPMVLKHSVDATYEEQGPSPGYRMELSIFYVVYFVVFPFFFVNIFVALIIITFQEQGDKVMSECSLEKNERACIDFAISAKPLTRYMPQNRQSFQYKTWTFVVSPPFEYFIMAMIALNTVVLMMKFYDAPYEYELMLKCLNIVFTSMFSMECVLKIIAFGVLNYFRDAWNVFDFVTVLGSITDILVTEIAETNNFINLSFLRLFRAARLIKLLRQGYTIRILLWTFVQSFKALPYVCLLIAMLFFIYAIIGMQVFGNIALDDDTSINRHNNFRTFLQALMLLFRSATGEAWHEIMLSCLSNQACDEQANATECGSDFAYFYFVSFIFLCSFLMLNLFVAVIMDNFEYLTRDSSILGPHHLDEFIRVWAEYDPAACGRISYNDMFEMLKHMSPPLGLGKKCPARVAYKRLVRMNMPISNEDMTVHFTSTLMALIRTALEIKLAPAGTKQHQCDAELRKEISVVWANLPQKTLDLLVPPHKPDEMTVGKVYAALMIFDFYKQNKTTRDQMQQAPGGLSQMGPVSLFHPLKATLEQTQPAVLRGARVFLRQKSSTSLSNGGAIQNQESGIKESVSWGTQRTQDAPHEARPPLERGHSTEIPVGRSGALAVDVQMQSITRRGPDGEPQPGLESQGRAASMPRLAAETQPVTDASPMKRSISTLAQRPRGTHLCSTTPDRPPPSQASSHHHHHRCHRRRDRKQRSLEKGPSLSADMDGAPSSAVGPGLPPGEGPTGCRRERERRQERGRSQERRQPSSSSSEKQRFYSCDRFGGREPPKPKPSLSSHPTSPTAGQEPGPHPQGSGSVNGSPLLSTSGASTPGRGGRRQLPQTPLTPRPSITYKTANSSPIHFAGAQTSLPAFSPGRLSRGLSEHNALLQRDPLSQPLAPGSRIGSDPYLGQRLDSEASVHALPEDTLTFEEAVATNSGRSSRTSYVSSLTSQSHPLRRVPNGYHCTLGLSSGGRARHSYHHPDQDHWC
# Sequence (P54284 whole entry partner): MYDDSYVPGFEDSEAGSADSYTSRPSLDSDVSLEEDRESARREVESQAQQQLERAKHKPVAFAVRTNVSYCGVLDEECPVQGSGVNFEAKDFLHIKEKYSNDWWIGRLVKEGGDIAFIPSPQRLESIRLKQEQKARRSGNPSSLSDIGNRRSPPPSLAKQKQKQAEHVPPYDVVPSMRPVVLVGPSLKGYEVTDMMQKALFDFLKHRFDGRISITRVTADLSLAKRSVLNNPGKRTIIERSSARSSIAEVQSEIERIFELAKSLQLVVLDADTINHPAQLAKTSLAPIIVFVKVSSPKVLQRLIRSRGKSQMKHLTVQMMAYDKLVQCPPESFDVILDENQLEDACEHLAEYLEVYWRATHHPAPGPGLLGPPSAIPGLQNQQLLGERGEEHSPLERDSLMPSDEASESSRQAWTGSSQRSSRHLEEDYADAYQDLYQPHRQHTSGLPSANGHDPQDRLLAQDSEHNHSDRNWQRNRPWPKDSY
# Sequence (P54289 25-946 partner limits assumed): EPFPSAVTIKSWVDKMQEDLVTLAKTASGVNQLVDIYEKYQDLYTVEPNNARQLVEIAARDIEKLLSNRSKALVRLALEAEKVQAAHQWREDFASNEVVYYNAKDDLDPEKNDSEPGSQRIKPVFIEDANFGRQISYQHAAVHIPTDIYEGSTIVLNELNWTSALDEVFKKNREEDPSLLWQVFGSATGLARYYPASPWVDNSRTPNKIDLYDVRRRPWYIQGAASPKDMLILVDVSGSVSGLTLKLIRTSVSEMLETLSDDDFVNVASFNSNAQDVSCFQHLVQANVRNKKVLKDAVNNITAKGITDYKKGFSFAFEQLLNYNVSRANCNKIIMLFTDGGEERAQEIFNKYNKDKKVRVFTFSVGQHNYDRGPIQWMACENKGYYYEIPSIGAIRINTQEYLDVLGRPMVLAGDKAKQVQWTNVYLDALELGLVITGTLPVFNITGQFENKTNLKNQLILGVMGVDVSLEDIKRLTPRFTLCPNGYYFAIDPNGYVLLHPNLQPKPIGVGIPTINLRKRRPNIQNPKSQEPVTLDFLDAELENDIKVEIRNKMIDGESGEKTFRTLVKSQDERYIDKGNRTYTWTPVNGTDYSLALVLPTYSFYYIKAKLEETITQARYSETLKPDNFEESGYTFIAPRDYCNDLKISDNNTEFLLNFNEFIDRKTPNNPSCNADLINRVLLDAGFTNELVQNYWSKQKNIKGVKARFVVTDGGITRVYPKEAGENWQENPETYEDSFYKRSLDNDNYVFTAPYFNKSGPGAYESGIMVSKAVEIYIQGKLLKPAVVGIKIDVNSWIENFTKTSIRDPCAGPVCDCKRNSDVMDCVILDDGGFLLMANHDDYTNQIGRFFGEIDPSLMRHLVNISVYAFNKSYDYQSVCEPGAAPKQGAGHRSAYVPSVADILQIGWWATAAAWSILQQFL
# Sequence (P54289 947-1103 partner limits assumed): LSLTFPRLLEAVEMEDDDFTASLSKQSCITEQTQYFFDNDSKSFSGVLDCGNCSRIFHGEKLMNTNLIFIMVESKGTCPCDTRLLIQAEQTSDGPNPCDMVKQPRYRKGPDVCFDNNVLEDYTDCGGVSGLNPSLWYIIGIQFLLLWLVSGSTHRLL
# Assay name: Measurement of N-type Ca2+ channel blocking potencies in IMR-32 cells using the fluorescent Ca2+ indicator Indo-1
# Assay type: cell-based
# Condition parameters: IMR-32 cells, K+ depolarization, 5 μM nitrendipine to block L-type channels; read-out: IMR 32 IC50
Assay metric: IC50 (µM)

Molecule | Target desc | IC50, µM
CC(C)CCNC(C)(C)C(=O)N[C@@H](Cc1ccc(OCc2ccccc2)cc1)C(=O)NC(C)(C)C | N-type Ca^2+ Channel (Homo sapiens, UniProt Q00975) | 1.3
CC(C)C[C@@H](C(=O)N[C@@H](Cc1ccc(OCc2ccccc2)cc1)C(=O)NC(C)(C)C)N1CCCCC1 (relative stereo) | N-type Ca^2+ Channel (Homo sapiens, UniProt Q00975) | 1.4
CC(C)C[C@@H](C(=O)N[C@@H](Cc1ccc(OCc2ccccc2)cc1)C(=O)NCCNCc1ccccc1)N1CCOCC1 (relative stereo) | N-type Ca^2+ Channel (Homo sapiens, UniProt Q00975) | 1.1
CC(C)=CCN(C)[C@@H](CC(C)C)C(=O)N[C@@H](Cc1ccc(OCc2ccccc2)cc1)C(=O)NC(C)(C)C (relative stereo) | N-type Ca^2+ Channel (Homo sapiens, UniProt Q00975) | 1.3

A. CC(C)CC(C(=O)NC(Cc1ccc(OCc2ccccc2)cc1)C(=O)N1CCN(C)CC1)N(C)CC1CCCCC1 (stereo not drawn)
B. CC(C)C[C@H](NCc1ccc(C(C)(C)C)cc1)C(=O)N[C@@H](Cc1ccc(OCc2ccccc2)cc1)C(=O)N1CCN(Cc2ccccc2)CC1 (relative stereo)
Enquiry: When the recorded IC50 values are compared, which is smaller: that of A or that of B ? Indicate your choice by writing its label.
Return: B

* * *

# Target desc: N-type Ca^2+ Channel (Homo sapiens, UniProt Q00975)
# Construct: host or cells: IMR-32 cells differentiated with dibutyryl cAMP and bromodeoxyuridine
# Assay name: Measurement of N-type Ca2+ channel blocking potencies in IMR-32 cells using the fluorescent Ca2+ indicator Indo-1
# Format: cell-based
# Condition parameters: 1 μM; IMR-32 cells, 5 μM nitrendipine
Assay metric: IMR 32 % of Blockade @ 1 μM (%)

Compound | Target desc | Unit tag | IMR 32 % of Blockade @ 1 μM
CC(C)C[C@@H](C(=O)N[C@@H](Cc1ccc(OCc2ccccc2)cc1)C(=O)NC1CCN(Cc2ccccc2)CC1)N(C)C1CCCCC1 (relative stereo) | N-type Ca^2+ Channel (Homo sapiens, UniProt Q00975) | % | 53
CC(C)C[C@@H](C(=O)N[C@@H](Cc1ccc(OCc2ccccc2)cc1)C(=O)N1CCN(Cc2ccccc2)CC1)N(C)C (relative stereo) | N-type Ca^2+ Channel (Homo sapiens, UniProt Q00975) | % | 50
CC(C)C[C@@H](C(=O)N[C@@H](Cc1ccc(OCc2ccccc2)cc1)C(=O)N1CCCCC1)N(C)Cc1ccc(C(C)(C)C)cc1 (relative stereo) | N-type Ca^2+ Channel (Homo sapiens, UniProt Q00975) | % | 80
CC(C)CCN(C)[C@@H](CC(C)C)C(=O)N[C@@H](Cc1ccc(OCc2ccccc2)cc1)C(=O)NC1CCN(Cc2ccccc2)CC1 (relative stereo) | N-type Ca^2+ Channel (Homo sapiens, UniProt Q00975) | % | 70
CC(C)C[C@H](NCc1ccccc1)C(=O)N[C@@H](Cc1ccc(OCc2ccccc2)cc1)C(=O)OC(C)(C)C (relative stereo) | N-type Ca^2+ Channel (Homo sapiens, UniProt Q00975) | % | 52
CN[C@@H](CC(C)C)C(=O)N[C@@H](Cc1ccc(OCc2ccccc2)cc1)C(=O)N1CCN(Cc2ccccc2)CC1 (relative stereo) | N-type Ca^2+ Channel (Homo sapiens, UniProt Q00975) | % | 51
CC(C)C[C@@H](C(=O)N[C@@H](Cc1ccc(OCc2ccccc2)cc1)C(=O)N1CCCCC1)N(C)C (relative stereo) | N-type Ca^2+ Channel (Homo sapiens, UniProt Q00975) | % | 36
CC(C)CCN(C)[C@@H](CC(C)C)C(=O)N[C@@H](Cc1ccc(OCc2ccccc2)cc1)C(=O)NCCN1CCCCC1 (relative stereo) | N-type Ca^2+ Channel (Homo sapiens, UniProt Q00975) | % | 60
CC(C)C[C@@H](C(=O)N[C@@H](Cc1ccc(OCc2ccccc2)cc1)C(=O)N1CCCCC1)N(C)C1CCCCC1 (relative stereo) | N-type Ca^2+ Channel (Homo sapiens, UniProt Q00975) | % | 65
